- Target Or Test System: rat Peripheral-type Benzodiazepine Receptor (PBR), Tspo (gene 24230)
- Experiment Summary: NVS_MP_rPBR: NovaScreen (NVS) Membrane Protein Assay for rat Peripheral-type Benzodiazepine Receptor (PBR) (AID 2283335)
Results filed as inconclusive are left out. The source made the active and inactive calls. Rule for the calls: active = hit-call score of the fitted dose curve at least 0.9, where 1 is the maximum; inconclusive = response in the unintended direction; inactive = score below 0.9.
Labels: True = active, False = inactive

INSERT INTO assay_data (compound, label_value) VALUES
  ('Nc1ccc([N+](=O)[O-])cc1Cl', 'False'),
  ('Nc1ccc2ccccc2c1', 'True'),
  ('Cc1cc(C)c(C(=O)P(=O)(c2ccccc2)c2ccccc2)c(C)c1', 'False'),
  ('O=S(=O)(c1ccc(O)cc1)c1ccc(O)cc1', 'True'),
  ('c1ccc2c(c1)Nc1ccccc1S2', 'False'),
  ('CCOP(=S)(NC(C)C)Oc1ccccc1C(=O)OC(C)C (centres undefined)', 'False'),
  ('Cc1ccc2c(c1N)C(=O)c1ccccc1C2=O', 'True'),
  ('CO/N=C(/C(=O)OC)c1ccccc1COc1ccccc1C', 'True'),
  ('O=P(Oc1ccccc1)(Oc1ccccc1)Oc1ccccc1', 'True');

###

- Read-out: Macrophage colony-stimulating factor (MCSF), CSF1 (gene 1435)
- Experiment Summary: BSK_LPS_MCSF: BioMAP Diversity Plus: LPS Assay for Macrophage colony-stimulating factor (MCSF) Biomarker Activity (AID 2283083)
- Study Conditions: primary human HUVEC with PBMC; actives raise or lower the signal
Active and inactive are the calls of the source. Rule for the calls: active = hit-call score of the fitted dose curve at least 0.9, where 1 is the maximum; inactive = score below 0.9.
Labels: yes for active, no for inactive

INSERT INTO assay_data (compound, label_value) VALUES
  ('CC(O)C(F)(F)C(F)(F)F (centres undefined)', 'no'),
  ('ClC1=C(Cl)C2(Cl)C3C(Cl)C(Cl)CC3C1(Cl)C2(Cl)Cl (centres undefined)', 'yes'),
  ('COP(=O)(CCC(=O)NCO)OC', 'no'),
  ('O=S(=O)(F)C(F)(F)C(F)(F)C(F)(F)C(F)(F)C(F)(F)C(F)(F)C(F)(F)C(F)(F)F', 'no'),
  ('Cc1ccc([N+](=O)[O-])cc1C', 'no'),
  ('CCCCN(CCCC)N=O', 'no'),
  ('O=C(O)C(F)(F)OC(F)(F)C(F)(F)OC(F)(F)F', 'no'),
  ('CCNc1nc(Cl)nc(NC(C)(C)C)n1', 'no'),
  ('CCCCCCCc1ccc(O)cc1', 'yes'),
  ('C=CC(=O)OCC(CC)(COC(=O)C=C)COC(=O)C=C', 'yes'),
  ('ClC(Cl)(Cl)c1ccccc1', 'no'),
  ('Cc1c([N+](=O)[O-])cc2c(c1[N+](=O)[O-])C(C)(C)CC2(C)C', 'no'),
  ('ClC(Cl)c1ccccc1', 'no'),
  ('Cc1ccc(O)cc1C', 'no'),
  ('O=P1(N(CCCl)CCCl)NCCCO1 (centres undefined)', 'no'),
  ('O=[N+]([O-])c1ccccc1', 'no'),
  ('Nc1ccc2ccccc2c1', 'no'),
  ('c1cc2c3c(cccc3c1)CC2', 'no'),
  ('Cc1ccc2c(c1N)C(=O)c1ccccc1C2=O', 'no'),
  ('O=C(O)C(F)(F)C(F)(F)C(=O)O', 'no'),
  ('CSC(C)(C)C=NO', 'no'),
  ('CCC1(c2ccccc2)C(=O)N=C(O)NC1=O (centres undefined)', 'no'),
  ('CCCCc1ccccc1', 'no'),
  ('O=P(OCC(Br)CBr)(OCC(Br)CBr)OCC(Br)CBr (centres undefined)', 'no');
